Target sequence: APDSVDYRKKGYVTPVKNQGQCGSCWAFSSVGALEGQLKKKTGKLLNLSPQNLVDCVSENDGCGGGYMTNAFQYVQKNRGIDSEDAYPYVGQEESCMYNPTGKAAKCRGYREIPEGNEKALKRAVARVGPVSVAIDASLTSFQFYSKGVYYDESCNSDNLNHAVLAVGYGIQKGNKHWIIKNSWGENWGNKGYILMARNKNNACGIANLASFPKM
MEASURED QUANTITY: Ki (nM)
Numbers only, in nM.

Identify Ki associated with the molecule `CC(C)C[C@H](NC(=O)OCc1ccccc1)C(=O)N[C@@H](CC(C)C)C(=O)c1n[nH]c(=O)o1`
13

# credit: patent US6797720B2
